The compounds listed here are annotated with their log10 of Ki.
Target: isolated recombinant JAK1 kinase domain (Homo sapiens (Human))
Sequence (P23458 875-1153): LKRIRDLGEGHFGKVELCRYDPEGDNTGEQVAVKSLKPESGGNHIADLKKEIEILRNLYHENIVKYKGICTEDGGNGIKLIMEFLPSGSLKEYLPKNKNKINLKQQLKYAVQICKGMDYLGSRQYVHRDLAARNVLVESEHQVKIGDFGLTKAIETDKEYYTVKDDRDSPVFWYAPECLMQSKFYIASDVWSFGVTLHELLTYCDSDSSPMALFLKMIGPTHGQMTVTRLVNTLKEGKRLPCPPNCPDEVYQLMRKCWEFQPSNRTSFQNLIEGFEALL
Assay: JAK1 enzyme assay (Caliper LabChip, peptide phosphorylation)
Type: biochemical
Conditions: isolated recombinant JAK1 kinase domain, 25 μM ATP
Counter-ions that a name gives are not always drawn.
MEASURED METRIC: log10 of Ki (log10 of the value in pM)

| COMPOUND | MEASURED METRIC | ENDPOINT VALUE |
| --- | --- | --- |
| Nc1nn2cccnc2c1C(=O)Nc1cn(CC(=O)N2CCN(CC3CC3)CC2)nc1-c1cc(Cl)ccc1OC(F)F | log10 of Ki | 2.79 |
| CCN(Cc1ccnc(C)c1)C(=O)Cn1cc(NC(=O)c2cnn3cccnc23)c(-c2cc(Cl)ccc2OC(F)F)n1 | log10 of Ki | 2.58 |
| CN(CC1(C)COC1)C1CCN(C(=O)Cn2cc(NC(=O)c3cnn4cccnc34)c(-c3cc(Cl)ccc3OC(F)F)n2)CC1 | log10 of Ki | 2.80 |
| CC(C#N)CN(C)C1CCN(C(=O)Cn2cc(NC(=O)c3cnn4cccnc34)c(-c3cc(Cl)ccc3OC(F)F)n2)CC1 (stereo not drawn) | log10 of Ki | 2.40 |
| CN1CCC2(CCN(C(=O)Cn3cc(NC(=O)c4cnn5cccnc45)c(-c4cc(Cl)ccc4OC(F)F)n3)CC2)C1 | log10 of Ki | 2.75 |
| O=C(Nc1cn(CC(=O)N2CCC(N3CCSCC3)CC2)nc1-c1cc(Cl)ccc1OC(F)F)c1cnn2cccnc12 | log10 of Ki | 2.49 |
| CN1CC[C@H]2[C@@H](CCN2C(=O)Cn2cc(NC(=O)c3cnn4cccnc34)c(-c3cc(Cl)ccc3OC(F)F)n2)C1 | log10 of Ki | 3.32 |
| CN1CCC2(CC1)CN(C(=O)Cn1cc(NC(=O)c3cnn4cccnc34)c(-c3cc(Cl)ccc3OC(F)F)n1)C2 | log10 of Ki | 3.05 |
| CC1(N2CCOCC2)CCN(C(=O)Cn2cc(NC(=O)c3cnn4cccnc34)c(-c3cc(Cl)ccc3OC(F)F)n2)CC1 | log10 of Ki | 2.78 |
| CN1CCN(C(=O)Cn2cc(NC(=O)c3cnn4cccnc34)c(-c3cc(Cl)ccc3OC(F)F)n2)C[C@@H]1CO | log10 of Ki | 2.76 |
| CC(C)(O)CCN1C[C@@H]2CN(C(=O)Cn3cc(NC(=O)c4cnn5cccnc45)c(-c4cc(Cl)ccc4OC(F)F)n3)C[C@@H]2C1 | log10 of Ki | 3.00 |
| NC(=O)CCCN1CCC(n2cc(NC(=O)c3c(N)nn4cccnc34)c(-c3cc(Cl)ccc3OC(F)F)n2)CC1 | log10 of Ki | 2.77 |
| COC(=O)CN1CCN(C(=O)Cn2cc(NC(=O)c3cnn4cccnc34)c(-c3cc(Cl)ccc3OC(F)F)n2)CC1 | log10 of Ki | 2.49 |
| O=C(Nc1cn(CC(=O)N2CCN(CCN3CCOCC3)CC2)nc1-c1cc(Cl)ccc1OC(F)F)c1cnn2cccnc12 | log10 of Ki | 2.60 |
| CCOC(=O)C1(C)CCN(CCN2CCN(C(=O)Cn3cc(NC(=O)c4cnn5cccnc45)c(-c4cc(Cl)ccc4OC(F)F)n3)CC2)CC1 [Example 337, formate] | log10 of Ki | 2.92 |
| O=C(Nc1cn(CCNCc2ccccc2)nc1-c1cc(Cl)ccc1OC(F)F)c1cnn2cccnc12 | log10 of Ki | 2.32 |
| N=C(N)CCCn1cc(NC(=O)c2cnn3cccnc23)c(-c2cc(Cl)ccc2OC(F)F)n1 | log10 of Ki | 2.79 |
| O=C(Nc1cn(CC(=O)N2C[C@H]3CN(CCCN4CCOC4=O)C[C@H]3C2)nc1-c1cc(Cl)ccc1OC(F)F)c1cnn2cccnc12 | log10 of Ki | 2.66 |
| CN[C@H]1C[C@@H](n2cc(NC(=O)c3c(N)nn4cccnc34)c(-c3cc(Cl)ccc3OC(F)F)n2)C1 | log10 of Ki | 2.72 |
| O=C(Nc1cn(CC2(O)CCCC2)nc1-c1cc(Cl)ccc1OC(F)F)c1cnn2cccnc12 | log10 of Ki | 2.59 |
| CC(F)(F)CNC1CCN(C(=O)Cn2cc(NC(=O)c3cnn4cccnc34)c(-c3cc(Cl)ccc3OC(F)F)n2)CC1 | log10 of Ki | 2.49 |
| CC(C)(C)OC(=O)N1CC[C@H](n2cc(NC(=O)c3cnn4cccnc34)c(-c3cc(Cl)ccc3OC(F)F)n2)[C@@H](O)C1 (single isomer, unassigned) | log10 of Ki | 3.52 |
| CCOC(=O)[C@@H](N)CCn1cc(NC(=O)c2cnn3cccnc23)c(-c2cc(Cl)ccc2OC(F)F)n1 | log10 of Ki | 3.13 |
| CN1CCCN(C(=O)Cn2cc(NC(=O)c3c(N)nn4cccnc34)c(-c3cc(Cl)ccc3OC(F)F)n2)CC1 | log10 of Ki | 3.03 |
| CC1(O)CCN(C(=O)Cn2cc(NC(=O)c3cnn4cccnc34)c(-c3cc(Cl)ccc3OC(F)F)n2)CC1 | log10 of Ki | 2.59 |
| O=C(Nc1sc(N2CCN(CCc3ccccc3)CC2)nc1-c1cc(Cl)ccc1OC(F)F)c1cnn2cccnc12 | log10 of Ki | 4.15 |
| N#CC1CCN(C2CCN(C(=O)Cn3cc(NC(=O)c4cnn5cccnc45)c(-c4cc(Cl)ccc4OC(F)F)n3)CC2)CC1 | log10 of Ki | 2.58 |
